target.under.test: Full-length PRMT5 enzyme (NCBI Reference sequence NP_006100.2) co-expressed with His6-MEP50 (Homo sapiens (Human))
Sequence (O14744 whole entry): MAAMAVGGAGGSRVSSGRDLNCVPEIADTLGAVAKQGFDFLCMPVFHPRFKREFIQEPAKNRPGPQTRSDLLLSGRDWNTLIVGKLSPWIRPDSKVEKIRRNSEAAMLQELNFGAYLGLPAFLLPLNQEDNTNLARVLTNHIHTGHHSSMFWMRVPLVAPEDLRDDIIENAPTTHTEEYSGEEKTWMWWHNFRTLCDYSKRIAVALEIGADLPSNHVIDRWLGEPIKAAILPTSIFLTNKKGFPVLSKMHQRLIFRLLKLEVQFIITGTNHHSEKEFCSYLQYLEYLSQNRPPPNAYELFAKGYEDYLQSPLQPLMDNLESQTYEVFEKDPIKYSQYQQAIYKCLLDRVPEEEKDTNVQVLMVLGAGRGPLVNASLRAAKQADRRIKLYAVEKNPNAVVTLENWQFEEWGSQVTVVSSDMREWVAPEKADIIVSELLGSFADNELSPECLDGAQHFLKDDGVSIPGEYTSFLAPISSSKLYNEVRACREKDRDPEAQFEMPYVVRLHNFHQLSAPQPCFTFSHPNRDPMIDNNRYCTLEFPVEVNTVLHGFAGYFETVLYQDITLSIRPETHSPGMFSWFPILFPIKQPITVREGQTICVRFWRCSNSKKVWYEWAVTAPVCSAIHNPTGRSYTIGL
Sequence (Q9BQA1 whole entry partner): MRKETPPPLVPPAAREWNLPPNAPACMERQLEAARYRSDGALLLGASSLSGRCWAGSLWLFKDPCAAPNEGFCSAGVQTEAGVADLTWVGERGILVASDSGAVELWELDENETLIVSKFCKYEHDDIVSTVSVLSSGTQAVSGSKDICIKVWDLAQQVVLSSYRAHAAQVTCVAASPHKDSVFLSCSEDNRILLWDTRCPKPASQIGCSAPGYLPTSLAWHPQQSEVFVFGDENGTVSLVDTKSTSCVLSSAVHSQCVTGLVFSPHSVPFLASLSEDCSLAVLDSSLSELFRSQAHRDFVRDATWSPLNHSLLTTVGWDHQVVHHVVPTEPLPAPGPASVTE
assay: Revised PRMT5 Biochemical Assay
assay.context: 1 μM peptide substrate, 1 μM S-Adenosyl methionine, 4 hours at 37 degree Celsius, Transcreener EPIGEN fluorescence polarisation
Where a name gives a salt, the structure may show the parent alone.
value.type: IC50 (nM)

molecule	display.unit	IC50
O=C(NC[C@@H](O)[C@@H]1Cc2ccccc2CN1)c1ccc(C(=O)N2C3CCC2COC3)cc1 [Example 49, hydrochloride]	nM	38
CC(C)Oc1ccc(C(=O)NC[C@@H](O)[C@@H]2Cc3ccccc3CN2)cn1 [Example 59]	nM	593
O=C(NC[C@@H](O)[C@@H]1Cc2ccccc2CN1)c1cccc(C(F)F)c1 [Example 22]	nM	2150
CCOc1cc(CC(=O)N2C3CCC2COC3)ccc1C(=O)NC[C@@H](O)[C@@H]1Cc2ccccc2CN1 [Example 74]	nM	338

A. O=C(NC[C@@H](O)[C@@H]1Cc2ccccc2CN1)c1ccc(C(=O)N2CCC(O)CC2)cc1 [Example 45]
B. O=C(NC[C@@H](O)[C@@H]1Cc2ccccc2CN1)c1ccc(C(=O)N2CC3CC2CO3)cc1 (mixture of isomers) [Example 94]
C. O=C(NC[C@@H](O)[C@@H]1Cc2ccccc2CN1)c1ccc(C(=O)N2C[C@H]3COC[C@H]3C2)cc1 [Example 36]
D. Cc1nnc(-c2ccc(C(=O)NC[C@@H](O)[C@@H]3Cc4ccccc4CN3)cc2)o1 [Example 25]
E. O=C(NC[C@@H](O)[C@H]1Cc2ccccc2CN1)c1ccc(C(=O)N2CCOCC2)cc1 [Example 54, hydrochloride]
Please rank these molecules by IC50 in descending order. Returns: the labels arranged in the requested order.
E, D, B, A, C
